# system under test: JAK3 (Homo sapiens, UniProt P52333)
# Construct: purchased Thermo fisher PV3855
# Sequence (P52333 781-1124 limits assumed): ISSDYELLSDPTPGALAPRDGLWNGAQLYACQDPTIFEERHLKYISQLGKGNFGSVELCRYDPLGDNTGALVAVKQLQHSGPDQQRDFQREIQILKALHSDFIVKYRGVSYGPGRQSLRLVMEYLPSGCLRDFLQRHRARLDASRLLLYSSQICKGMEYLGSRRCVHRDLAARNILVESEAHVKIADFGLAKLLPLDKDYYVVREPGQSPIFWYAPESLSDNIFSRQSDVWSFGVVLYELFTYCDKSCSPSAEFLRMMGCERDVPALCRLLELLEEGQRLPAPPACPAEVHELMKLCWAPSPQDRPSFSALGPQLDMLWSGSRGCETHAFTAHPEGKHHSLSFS
# assay comment: JAK3 biochemical assay (ADP-GLO Kinase Assay)
# measurement parameters: B*: testing performed in a first testing facility; read-out: JAK3 IC50 (nM) Relative, B*
test readout: IC50

COc1cc2c(cc1Nc1ncc(Cl)c(N3CCc4ccccc43)n1)CN(C(C)C)CC2; > 1000 nM
COc1cc2c(cc1Nc1ncc(Cl)c(-n3cc(Cc4nn[nH]n4)c4ccccc43)n1)CN(C)CC2; 500 to 1000 nM
COc1ccc2c(c1)C(C(=O)O)CN2c1nc(Nc2cc3c(cc2OC)CCN(C)C3)ncc1Cl (stereo not shown); ≤ 100 nM
COc1cc2c(cc1Nc1ncc(Cl)c(N3CC(C)(CC(=O)O)c4ccccc43)n1)CN(C(C)C)CC2 (stereo not shown); 100 to 500 nM
COc1cc2c(cc1Nc1ncc(Cl)c(N3CC(C)(C(=O)O)c4ccccc43)n1)CN(C)CC2 (stereo not shown); ≤ 100 nM
COc1cc2c(cc1Nc1ncc(Cl)c(-n3cc(S(N)(=O)=O)c4ccccc43)n1)CN(C)CC2; > 1000 nM
COc1cc2c(cc1Nc1ncc(Cl)c(-n3cc(NS(C)(=O)=O)c4ccccc43)n1)CN(C)CC2; > 1000 nM
COc1cc2c(cc1Nc1ncc(Cl)c(N3CCc4cc(C(F)F)ccc43)n1)CN(C)CC2; > 1000 nM
COc1cc2c(cc1Nc1ncc(Cl)c(-n3cc(C(C)C(=O)O)c4ccccc43)n1)CN(C)CC2 (stereo not shown); 500 to 1000 nM
COc1cc2c(cc1Nc1ncc(Cl)c(-n3cc(CC(N)=O)c4ccccc43)n1)CN(C)CC2; > 1000 nM
COc1cc2c(cc1Nc1ncc(Cl)c(N3CC(C)(CC(=O)O)c4ccc(F)cc43)n1)CN(C)CC2 (single isomer, unassigned) [Example 153]; > 1000 nM
COc1cc2c(cc1Nc1ncc(Cl)c(-n3cc(CC(=O)OC(C)C)c4ccccc43)n1)CN(C)CC2; > 1000 nM
COc1cc2c(cc1Nc1ncc(Cl)c(N3CC(C)(CC(=O)O)c4ccccc43)n1)CN(C)CC2 (stereo not shown) [Example 146]; ≤ 100 nM
CCc1c[nH]c2ncc(-c3ccc(N)c(P(C)(C)=O)n3)cc12; > 1000 nM
COc1cc2c(cc1Nc1ncc(Cl)c(N3CCn4c3cccc4=O)n1)CN(C)CC2; > 1000 nM
COc1cc2c(cc1Nc1ncc(Cl)c(N3CCc4ccccc43)n1)CN(C)CC2; > 1000 nM

The origin of these recorded values is patent US12612424B2.
